Hello, the source for this data is patent US20170129940A1, in case you need it.

Inhibition of binding (%) by entry:
Biological target: hCMV gH + gL + UL128 + UL130 + UL131A (co-expressed in HEK293T cells) (human cytomegalovirus), P12824
Test: competitor: 10F7-biotin; cell staining
Conditions: remark: other sources report otherwise

[
  {
    "binder": "8L13 (antibody, V domains shown) VH: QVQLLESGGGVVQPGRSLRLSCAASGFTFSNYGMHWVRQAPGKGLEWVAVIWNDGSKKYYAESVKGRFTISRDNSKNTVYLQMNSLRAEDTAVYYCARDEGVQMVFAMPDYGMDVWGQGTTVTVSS VL: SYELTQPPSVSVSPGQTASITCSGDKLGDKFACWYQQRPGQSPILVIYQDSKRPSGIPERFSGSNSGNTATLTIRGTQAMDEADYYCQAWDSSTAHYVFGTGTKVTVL",
    "unit-abbreviation": "%",
    "Inhibition of binding (%)": 100
  },
  {
    "binder": "10F7 (antibody, V domains shown) VH: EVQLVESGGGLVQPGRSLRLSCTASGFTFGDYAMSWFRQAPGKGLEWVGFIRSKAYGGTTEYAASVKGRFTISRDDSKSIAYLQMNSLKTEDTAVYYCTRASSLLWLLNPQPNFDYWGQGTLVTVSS VL: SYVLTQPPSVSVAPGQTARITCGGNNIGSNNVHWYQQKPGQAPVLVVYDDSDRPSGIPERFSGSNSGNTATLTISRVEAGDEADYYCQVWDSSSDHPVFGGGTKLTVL",
    "unit-abbreviation": "%",
    "Inhibition of binding (%)": 100
  },
  {
    "binder": "15D8 (antibody, V domains shown) VH: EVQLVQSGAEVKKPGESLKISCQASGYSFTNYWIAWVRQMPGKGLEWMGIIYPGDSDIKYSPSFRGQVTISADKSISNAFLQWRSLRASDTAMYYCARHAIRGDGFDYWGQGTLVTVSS VL: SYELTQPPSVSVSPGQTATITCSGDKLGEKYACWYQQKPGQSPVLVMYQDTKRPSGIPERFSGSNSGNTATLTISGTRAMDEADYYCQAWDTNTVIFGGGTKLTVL",
    "unit-abbreviation": "%",
    "Inhibition of binding (%)": 0
  }
]
